# System: HUVEC
# protocolNotes: HUVEC cell-viability assay using calcein-AM
# Assay type: cell-based, human
# testContext: Homo sapiens, HUVEC, read-out: IC50 Calcein-AM HUVEC
measuredMetric: pIC50
// scale note: pIC50 = -log10(conc_M); give the bare number

Reported pIC50 ( O=C(Nc1cc(Cl)cc(Cl)c1)Oc1ccc(Cl)c2cccnc12 [Entry 24] ) = 6.13

Briefly, pIC50 measured for O=Nc1ccc(O)c2ncccc12 [Entry 33, 5-nitrosoquinolin-8-ol] : 5.43

Value of pIC50 reported for the compound Cc1ccc(S(=O)(=O)Nc2ccc([N+](=O)[O-])c3cccnc23)cc1 [Entry 55] is 5.84

pIC50 for Nc1ccc(O)c2ncccc12 [Entry 34, 5-aminoquinolin-8-ol] is 5.74

pIC50 recorded for this compound, O=[N+]([O-])c1ccc(O)c2ncccc12 [Entry 5, Nitroxoline, reference compound] , is 5.29

# compound Cc1ccc(S(=O)(=O)Nc2ccc(N=O)c3cccnc23)cc1 [Entry 54] ; its pIC50 = 5.88

So for Oc1c(C(c2ccccc2)N2CCOCC2)cc(Cl)c2cccnc12 (stereo not drawn) [Entry 18] , the logged pIC50 turned out to be 5.45

Noted for Cc1ccc(S(=O)(=O)Nc2cccc3cccnc23)cc1 [Entry 32, 8-quinolinyl p-toluenesulfonamide] : its pIC50 reads 5.83

CN(C)S(=O)(=O)Oc1ccc([N+](=O)[O-])c2cccnc12 [Entry 48, 5-nitroquinolin-8-yl dimethylsulfamate] has a reported pIC50 of 5.38

* * *

# targetSystem: hMetAP2 (Homo sapiens)
# Sequence (P50579 whole entry): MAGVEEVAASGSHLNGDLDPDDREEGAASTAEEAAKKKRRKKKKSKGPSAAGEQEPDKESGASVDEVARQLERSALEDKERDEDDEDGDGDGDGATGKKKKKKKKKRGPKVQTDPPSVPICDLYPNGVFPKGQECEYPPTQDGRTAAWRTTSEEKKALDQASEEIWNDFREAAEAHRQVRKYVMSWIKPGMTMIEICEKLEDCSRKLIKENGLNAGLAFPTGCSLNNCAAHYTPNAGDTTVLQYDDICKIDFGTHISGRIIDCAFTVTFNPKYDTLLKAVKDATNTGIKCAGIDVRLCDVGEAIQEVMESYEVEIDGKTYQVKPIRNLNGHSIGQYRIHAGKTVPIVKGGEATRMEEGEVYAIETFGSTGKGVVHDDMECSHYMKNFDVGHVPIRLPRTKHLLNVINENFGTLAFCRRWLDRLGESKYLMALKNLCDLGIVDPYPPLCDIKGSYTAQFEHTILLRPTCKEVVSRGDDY
# protocolNotes: human MetAP2 enzyme assay
# Format: biochemical
measuredMetric: IC50

Form field IC50, entry "Nc1cccc2cccnc12" : > 15 µM

Lookup result for Oc1c(C(Nc2nccs2)c2ccco2)cc(Cl)c2cccnc12 (stereo not drawn) ; measured IC50: 2.75 µM

Given item Oc1c(I)cc(Cl)c2cccnc12 [Entry 7, Clioquinol, reference compound] , the value recorded as its IC50 is 2.39 µM

"Cc1ccc(S(=O)(=O)Nc2ccc(N=O)c3cccnc23)cc1" has a reported IC50 of > 15 µM

Value of IC50 reported for the compound "COc1ccc(N2CCN(Cc3cc(Cl)c4cccnc4c3O)CC2)cc1" is > 15 µM

Notebook: "O=C(Nc1ccc(O)c2ncccc12)N1CCOCC1" , IC50 read as > 40 µM

response.value for CC(C)(C)C(=O)Oc1ccc([N+](=O)[O-])c2cccnc12 [Entry 46, 5-nitroquinolin-8-yl pivalate] (field: IC50) = 0.434 µM

Lab book: IC50 of "CCCCCCN(CCCCCC)c1ccc(O)c2ncccc12" noted as > 40 µM

Item: CCOC(=O)COc1ccc([N+](=O)[O-])c2cccnc12 [Entry 49, ethyl 2-(5-nitroquinolin-8-yloxy)acetate] | IC50: > 15 µM

IC50 reported for this compound NC(=O)COc1ccc([N+](=O)[O-])c2cccnc12 [Entry 50, 2-(5-nitroquinolin-8-yloxy)acetamide] : 1.06 µM

Consider "O=C(Nc1cc(F)cc(F)c1)Oc1ccc(Cl)c2cccnc12" . Its measured IC50 is > 15 µM

Value of IC50 reported for the compound "C=CCOc1c(Cl)cc(Cl)c2cccnc12" is > 15 µM

// sample "Cc1ccc(S(=O)(=O)Nc2ccc([N+](=O)[O-])c3cccnc23)cc1" , its IC50 was > 15 µM

Record summary for "Nc1ccc(O)c2ncccc12" : reported IC50 = 11.9 µM

Just so you know, measured IC50 for Cc1ccc(S(=O)(=O)Nc2cccc3cccnc23)cc1 [Entry 32, 8-quinolinyl p-toluenesulfonamide] came out at > 15 µM

GET /value?item= "CC(C)S(=O)(=O)Nc1ccc(O)c2ncccc12" &field=IC50 returns > 40 µM

Item: CCN(CC)c1ccc(O)c2ncccc12 [Entry 35, 5-(N,N-Diethyl)amino-8-hydroxyquinoline] | IC50: 20.1 µM

Entry "C=CCOc1ccc(Cl)c2cccnc12" — recorded IC50 = > 50 µM

* * *

# targetSystem: hMetAP1 (Homo sapiens)
# protocolNotes: human MetAP1 enzyme assay
# Assay type: biochemical
# testContext: IC50 hMetAP1, enzyme assay, 10 μM Co2+
pIC50: −log10 of the molar value.
measuredMetric: pIC50

In plain terms, CCN(CC)c1ccc(O)c2ncccc12 [Entry 35, 5-(N,N-Diethyl)amino-8-hydroxyquinoline] has a documented pIC50 of 5.14

The compound listed as CCOC(=O)COc1ccc([N+](=O)[O-])c2cccnc12 [Entry 49, ethyl 2-(5-nitroquinolin-8-yloxy)acetate] has a reported pIC50 of < 4.82

Entry under test: COc1ccc(CN(Cc2ccc(OC)cc2)c2ccc(O)c3ncccc23)cc1 [Entry 37] . Its pIC50 was 5.84

Form: compound = C=CCOc1cccc2ccc(C#N)nc12 [Entry 30, 8-(Allyloxy)quinoline-2-carbonitrile] ; pIC50 = < 4.82

Per the records, this compound ( O=C(Nc1cc(Cl)cc(Cl)c1)Oc1ccc(Cl)c2cccnc12 [Entry 24] ) has pIC50 equal to < 4.82

Kindly note the recorded pIC50 for C=CCOc1c(Cl)cc(Cl)c2cccnc12 [Entry 28, 8-(Allyloxy)-5,7-dichloroquinoline] , which is < 4.82

Sure, the documented pIC50 for Oc1c(C(Nc2nccs2)c2ccco2)cc(Cl)c2cccnc12 (centres unmarked) [Entry 19] is < 4.30

For this compound ( CCOP(=O)(OCC)Oc1ccc(Cl)c2cccnc12 [Entry 26, 5-chloroquinolin-8-yl diethyl phosphate] ), measured pIC50 is < 4.82

// CCCCCC(=O)Nc1ccc(O)c2ncccc12 [Entry 39, N-(8-Hydroxyquinolin-5-yl)hexanamide] : pIC50 value = < 4.40

# pIC50 of CC(C)S(=O)(=O)Nc1ccc(O)c2ncccc12 [Entry 41] = < 4.40

pIC50 recorded for this compound, Oc1c(I)cc(Cl)c2cccnc12 [Entry 7, Clioquinol, reference compound] , is < 4.82

Kindly note the recorded pIC50 for Nc1ccc(O)c2ncccc12 [Entry 34, 5-aminoquinolin-8-ol] , which is 5.05

Short answer for CC(C)(C)C(=O)Oc1ccc([N+](=O)[O-])c2cccnc12 [Entry 46, 5-nitroquinolin-8-yl pivalate] : pIC50 was < 4.82

Summary for this compound, Cc1ccc(S(=O)(=O)Nc2ccc([N+](=O)[O-])c3cccnc23)cc1 [Entry 55] : pIC50 is 4.68

Kindly note the recorded pIC50 for COc1ccc(N2CCN(Cc3cc(Cl)c4cccnc4c3O)CC2)cc1 [Entry 17] , which is < 4.82

Value of pIC50 reported for the compound O=C(NCCCl)Oc1c(Cl)cc(Cl)c2cccnc12 [Entry 21] is < 4.82

// recorded pIC50 for O=Nc1ccc(O)c2ncccc12 [Entry 33, 5-nitrosoquinolin-8-ol] : < 4.82

* * *

# System: HeLa
# protocolNotes: HeLa proliferation assay, 3H-T uptake
# Assay type: cell-based
# testContext: Homo sapiens, HeLa, read-out: IC50 3H-T Uptake HeLa
measuredMetric: IC50 (µM)
Write the answer as a number in µM, unit excluded.

Record "Cc1ccc(S(=O)(=O)Nc2ccc([N+](=O)[O-])c3cccnc23)cc1" / HeLa, IC50 recorded as 1.03

Entry Cc1ccc(S(=O)(=O)Nc2cccc3cccnc23)cc1 [Entry 32, 8-quinolinyl p-toluenesulfonamide] under HeLa had IC50 of 1.12

Form: item CN(C)S(=O)(=O)Oc1ccc([N+](=O)[O-])c2cccnc12 [Entry 48, 5-nitroquinolin-8-yl dimethylsulfamate] ; test system HeLa; IC50: 2.41

For the compound "Cc1ccc(S(=O)(=O)Nc2ccc(N=O)c3cccnc23)cc1" , the measured IC50 on HeLa was 0.59

Hey, HeLa data for O=[N+]([O-])c1ccc(O)c2ncccc12 [Entry 5, Nitroxoline, reference compound] : IC50 came out at 3.97

Short answer on HeLa for "Nc1ccc(O)c2ncccc12" , IC50: 2.36

Entry "O=Nc1ccc(O)c2ncccc12" , tested on HeLa, has a reported IC50 of 0.64

* * *

# targetSystem: UniProt P53582
# protocolNotes: human MetAP1 enzyme assay
# Type: biochemical
# testContext: noted only when above 15%
# label = 1 (yes) if b = bottom value in the dose-response curve, hMetAP1 >= 20% else 0 (no)

Asked: Decide: b = bottom value in the dose-response curve, hMetAP1 of Cc1ccc(S(=O)(=O)Nc2cccc3cccnc23)cc1 [Entry 32, 8-quinolinyl p-toluenesulfonamide] >= 20%?
Given back: 1 (yes)

Asked: API: above_or_equal(metric=b = bottom value in the dose-response curve, hMetAP1, cutoff=20%) for item "Cc1ccc(S(=O)(=O)Nc2ccc([N+](=O)[O-])c3cccnc23)cc1"
Given back: 0 (no)

Asked: Tell me whether b = bottom value in the dose-response curve, hMetAP1 is at least 20% here: "COc1ccc(CN(Cc2ccc(OC)cc2)c2ccc(O)c3ncccc23)cc1"
Given back: 1 (yes)

Asked: Is the recorded value of b = bottom value in the dose-response curve, hMetAP1 equal to or greater than 20% for this compound? CCN(CC)c1ccc(O)c2ncccc12 [Entry 35, 5-(N,N-Diethyl)amino-8-hydroxyquinoline]
Given back: 1 (yes)

Asked: Could you please find out whether "Cc1ccc(S(=O)(=O)Nc2ccc(N=O)c3cccnc23)cc1" has b = bottom value in the dose-response curve, hMetAP1 that meets 20% or exceeds it?
Given back: 0 (no)
